These entries and their values trace back to patent US20210115124A1.

pKd by entry:
# system-under-test: T1, human VEGF (hVEGF) (human, UniProt P15692 181-395)
# T1 construct: also called VEGF-A
# T1 sequence: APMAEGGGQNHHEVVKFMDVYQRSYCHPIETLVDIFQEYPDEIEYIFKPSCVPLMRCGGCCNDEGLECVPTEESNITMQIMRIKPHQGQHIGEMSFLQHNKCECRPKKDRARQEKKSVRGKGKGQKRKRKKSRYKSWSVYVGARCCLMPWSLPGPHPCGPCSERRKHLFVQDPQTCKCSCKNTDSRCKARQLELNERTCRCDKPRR
# assay-procedure: SPR single-cycle
Would you please state pKd, meaning minus log10 of the concentration in mol/L, as a bare number?

Past entries and their recorded results:
binder: G6.31 HC-I51H (Fab, name in Kabat numbering, V domains shown, Fab) VH: EVQLVESGGGLVQPGGSLRLSCAASGFTISDYWIHWVRQAPGKGLEWVAGHTPAGGYTYYADSVKGRFTISADTSKNTAYLQMNSLRAEDTAVYYCARFVFFLPYAMDYWGQGTLVTVSS VL: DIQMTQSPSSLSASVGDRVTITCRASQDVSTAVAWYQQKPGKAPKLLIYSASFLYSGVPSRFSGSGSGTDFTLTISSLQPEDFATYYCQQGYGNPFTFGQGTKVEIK
pKd: 9.21
--
binder: G6.31 LC-D28R (Fab, V domains shown, Fab) VH: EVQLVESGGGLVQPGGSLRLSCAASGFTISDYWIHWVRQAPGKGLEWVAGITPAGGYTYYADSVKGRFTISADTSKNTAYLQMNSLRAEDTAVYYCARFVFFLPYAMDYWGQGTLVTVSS VL: DIQMTQSPSSLSASVGDRVTITCRASQRVSTAVAWYQQKPGKAPKLLIYSASFLYSGVPSRFSGSGSGTDFTLTISSLQPEDFATYYCQQGYGNPFTFGQGTKVEIK
pKd: 9.25

Below: the item to evaluate.
[ask] // lookup pKd for G6.31 HC-Y59T (Fab, name in Kabat numbering, V domains shown, Fab) VH: EVQLVESGGGLVQPGGSLRLSCAASGFTISDYWIHWVRQAPGKGLEWVAGITPAGGYTYTADSVKGRFTISADTSKNTAYLQMNSLRAEDTAVYYCARFVFFLPYAMDYWGQGTLVTVSS VL: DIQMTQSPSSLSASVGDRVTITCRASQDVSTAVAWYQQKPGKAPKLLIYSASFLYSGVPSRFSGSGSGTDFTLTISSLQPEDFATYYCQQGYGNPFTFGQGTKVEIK
[reply] 8.57
